System: RXRa homodimer (NR concentration 180 nM)
Measurement Description: PBM binding z-score (relative to random genomic background probes); higher = stronger binding; sequences stand for … in GC…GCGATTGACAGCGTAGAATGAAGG
List of PBM binding z-score values.
Reported Endpoint: PBM binding z-score

biosequence=TTACCAAGGTGAGCTGAGTTCGTTGATCCAACTC recorded_value=0.157
biosequence=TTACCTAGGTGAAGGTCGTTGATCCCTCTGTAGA recorded_value=1.29
biosequence=TAGCATAGGTCATTGGGCCAGTATAGTACGCATC recorded_value=4.77
biosequence=CGTCAAAGTTCAAGGTAACGTACCAGAAAGCAGC recorded_value=4.54
biosequence=CCTACTGCGCCAAAAAGGTCATTGATGCCGATAA recorded_value=5.56
biosequence=CGAACTAGGTCAAGGACGGTGAATCTCCGCACGC recorded_value=2.64
biosequence=GCGACTGTGGCATCAGCAGGTTACCATAACTTAA recorded_value=0.187
biosequence=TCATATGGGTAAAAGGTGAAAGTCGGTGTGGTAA recorded_value=2.64
